measured-on: human GPR119 (Homo sapiens, UniProt Q8TDV5)
Sequence (Q8TDV5 1-308 limits assumed): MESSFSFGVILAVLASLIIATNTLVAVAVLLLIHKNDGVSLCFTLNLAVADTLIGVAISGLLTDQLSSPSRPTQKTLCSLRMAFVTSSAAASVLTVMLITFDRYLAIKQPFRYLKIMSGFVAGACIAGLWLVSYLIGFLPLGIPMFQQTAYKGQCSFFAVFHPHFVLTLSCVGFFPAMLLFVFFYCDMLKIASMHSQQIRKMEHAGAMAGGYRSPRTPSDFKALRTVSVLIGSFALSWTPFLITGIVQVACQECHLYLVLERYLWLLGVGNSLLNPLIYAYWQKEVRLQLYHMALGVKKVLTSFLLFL
method-summary: Measurement of GPR119 signaling by cAMP (LANCE cAMP kit or HTRF) in HEK293 cells transfected with human GPR119
applied-conditions: agonist cAMP response in HEK293 cells stably transfected with human GPR119; patent does not say which of the two cAMP formats (LANCE or HTRF)
Method: Measurement of GPR119 Signaling Using LANCE 384-Well cAMP Kit The adenylate cyclase assay was constructed following the LANCE™ cAMP Kit (Perkin Elmer, AD0264) instructions. […] Basal activity was determined using a DMSO control and maximum response was defined as cAMP stimulation produced by an internal agonist control. Standard cAMP concentrations were assayed concurrently for conversion of fluorescence signal to cAMP level. The data was analyzed using 4-parameter curve fit in Microsoft Excel […]
pEC50: −log10 of the molar value.
Label YES for high-side pEC50 (at or above 9) and NO for low-side pEC50 (below it).

## Input Is reported pEC50 greater than or equal to 9 here: COc1cnc(N2CCC([C@H]3C[C@H]3CCOc3cc(F)c(CC(=O)N4CCC4)c(F)c3)CC2)nc1 [Example 214]
## Output YES

## Input Is reported pEC50 greater than or equal to 9 here: CCOCc1cnc(N2CCC([C@H]3C[C@H]3CCOc3ccc(CC(=O)N4CC(O)C4)c(F)c3)CC2)nc1 [Example 199]
## Output NO

## Input Does C[C@H](CO)NC(=O)Cc1ccc(OCC[C@@H]2C[C@@H]2C2CCN(c3ncc(Cl)cn3)CC2)cc1F [Example 113] have a reported pEC50 of at least 9?
## Output NO

## Input Evaluate CCC(C)CN(C)C(=O)Cc1ccc(OCC[C@@H]2C[C@@H]2C2CCN(c3ncc(Cl)cn3)CC2)cc1F (stereo partly drawn) [Example 160] : pEC50 at minimum 9?
## Output NO

---

Assign EC50 to each entry below.
measured-on: human GPR119 (Homo sapiens, UniProt Q8TDV5)
Sequence (Q8TDV5 1-308 limits assumed): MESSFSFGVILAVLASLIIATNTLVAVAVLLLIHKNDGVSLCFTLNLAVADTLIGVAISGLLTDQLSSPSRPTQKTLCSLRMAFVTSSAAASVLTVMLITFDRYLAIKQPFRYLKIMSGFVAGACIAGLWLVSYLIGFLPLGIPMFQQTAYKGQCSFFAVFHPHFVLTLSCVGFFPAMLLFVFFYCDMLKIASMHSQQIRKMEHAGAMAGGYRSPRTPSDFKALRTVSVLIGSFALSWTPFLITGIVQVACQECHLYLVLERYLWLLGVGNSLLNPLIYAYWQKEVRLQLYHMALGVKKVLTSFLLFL
method-summary: Measurement of GPR119 signaling by cAMP (LANCE cAMP kit or HTRF) in HEK293 cells transfected with human GPR119
applied-conditions: agonist cAMP response in HEK293 cells stably transfected with human GPR119; patent does not say which of the two cAMP formats (LANCE or HTRF)
Hi! Could you send only the number? It should be in nM, unit omitted.

## Input Indicate the recorded EC50 value for this compound: COCc1cnc(N2CCC([C@H]3C[C@H]3CCOc3ccc(CC(=O)N4CCC(O)CC4)c(F)c3)CC2)nc1
## Output 3.7

## Input Retrieve EC50 measured for O=C(Cc1ccc(OCC[C@@H]2C[C@@H]2C2CCN(c3ncc(Cl)cn3)CC2)cc1F)N1CCc2nc(C3CC3)sc2C1 and print it.
## Output 1.7

## Input Could you please provide reported EC50 for COc1cnc(N2CCC([C@H]3C[C@H]3CCOc3cc(F)c(CC(=O)N4CC(F)C4)c(F)c3)CC2)nc1 ? Thanks!
## Output 0.09

## Input Look up and report measured EC50 for this entry: O=C(Cc1ccc(OCC[C@@H]2C[C@@H]2C2CCN(c3ncc(Cl)cn3)CC2)cc1F)N1CCc2cn[nH]c2C1
## Output 2.4

## Input Dear colleague, please send me the reported EC50 for COc1nnc2n1CCN(C(=O)Cc1ccc(OCC[C@@H]3C[C@@H]3C3CCN(c4ncc(Cl)cn4)CC3)cc1F)C2 when you can.
## Output 3.9

## Input Input O=C(Cc1ccc(OCC[C@@H]2C[C@@H]2C2CCN(c3ncc(Cl)cn3)CC2)cc1F)NCC1CCCCC1 , output reported EC50.
## Output 6.1

## Input Respond only with EC50 recorded for COc1cnc(N2CCC([C@H]3C[C@H]3CCOc3ccc(CC(=O)N4CC(O)C4)c(F)c3)CC2)nc1
## Output 2.1

## Input Fill in reported EC50 for this entry: O=C(Cc1ccc(OCC[C@@H]2C[C@@H]2C2CCN(c3ncc(Cl)cn3)CC2)cc1F)N1CC(n2cccn2)C1
## Output 0.81

## Input Look up and state reported EC50 for Cc1nc2c(s1)CN(C(=O)Cc1ccc(OCC[C@@H]3C[C@@H]3C3CCN(c4ncc(Cl)cn4)CC3)cc1F)CC2
## Output 0.78

## Input Report measured EC50; entry is O=C(Cc1ccc(OCC[C@@H]2C[C@@H]2C2CCN(c3ncc(Cl)cn3)CC2)cc1F)N1CC(F)C1
## Output 0.33

## Input Tell me measured EC50 for COc1cnc(N2CCC([C@H]3C[C@H]3CCOc3ccc(CC(=O)N4CCOCC4)c(F)c3)CC2)nc1 please.
## Output 1.4

## Input Specify EC50 for CC1(C)CN(C(=O)Cc2ccc(OCC[C@@H]3C[C@@H]3C3CCN(c4ncc(Cl)cn4)CC3)cc2F)C1 and stop.
## Output 0.8

## Input Hello, please tell me recorded EC50 for this one: COCc1cnc(N2CCC([C@H]3C[C@H]3CCOc3ccc(CC(=O)N4C[C@H](F)[C@@H](F)C4)c(F)c3)CC2)nc1
## Output 1

## Input Specify EC50 for O=C(Cc1ccc(OCC[C@@H]2C[C@@H]2C2CCN(c3ncc(Cl)cn3)CC2)cc1F)N1CCn2nc(C(F)(F)F)nc2C1 and stop.
## Output 1

## Input Give the measured EC50 for Cc1nc2c([nH]1)CN(C(=O)Cc1ccc(OCC[C@@H]3C[C@@H]3C3CCN(c4ncc(Cl)cn4)CC3)cc1F)C2
## Output 2.2

## Input Give the reported EC50 for this compound. COCc1cnc(N2CCC([C@H]3C[C@H]3CCOc3ccc(CC(=O)N4CCC4)c(C#N)c3)CC2)nc1
## Output 1.4

## Input Return EC50 for the following compound: Cc1nc2c(o1)CCN(C(=O)Cc1ccc(OCC[C@@H]3C[C@@H]3C3CCN(c4ncc(Cl)cn4)CC3)cc1F)C2
## Output 0.73

## Input Output measured EC50 for this item: O=C(Cc1ccc(OCC[C@@H]2C[C@@H]2C2CCN(c3ncc(Cl)cn3)CC2)cc1F)N1CCn2c(nnc2C(F)(F)F)C1
## Output 0.91

## Input Read the entry COCc1cnc(N2CCC([C@H]3C[C@H]3CCOc3cc(F)c(Cc4nnco4)c(F)c3)CC2)nc1 and write its reported EC50.
## Output 6.7

## Input Tell me EC50 reported for Cc1cc(OCC[C@@H]2C[C@@H]2C2CCN(c3ncc(Cl)cn3)CC2)ccc1CC(=O)N1CCC1
## Output 0.73

## Input Please look at this compound and report its EC50: COCc1cnc(N2CCC([C@H]3C[C@H]3CCOc3ccc(CC(=O)N4CC(F)(F)C4)cc3)CC2)nc1
## Output 3

## Input State, in one line, measured EC50 of O=C(Cc1ccc(OCC[C@@H]2C[C@@H]2C2CCN(c3ncc(Cl)cn3)CC2)cc1F)N1CCC(F)(F)C1
## Output 0.5

## Input Read the entry Cc1nc2c(o1)CN(C(=O)Cc1ccc(OCC[C@@H]3C[C@@H]3C3CCN(c4ncc(Cl)cn4)CC3)cc1F)CC2 and write its reported EC50.
## Output 1.2

## Input Output measured EC50 for this item: COCc1cnc(N2CCC([C@H]3C[C@H]3CCOc3cc(F)c(CC(=O)N4CC(C(C)(C)O)C4)c(F)c3)CC2)nc1
## Output 2

## Input Report EC50, nothing else, for this compound: O=C(Cc1ccc(OCC[C@@H]2C[C@@H]2C2CCN(c3ncc(Cl)cn3)CC2)cc1F)N1CCc2[nH]nnc2C1
## Output 1.9

## Input Specify EC50 for CN(CC1CCCCC1)C(=O)Cc1ccc(OCC[C@@H]2C[C@@H]2C2CCN(c3ncc(Cl)cn3)CC2)cc1F and stop.
## Output 7.6
